Biological target: CCR6 (Homo sapiens, UniProt P51684)
Construct: Human CD4+CCR6+CXCR3-T cells were isolated from leukopak from healthy donors; endogenous in cells
Sequence (P51684 1-374): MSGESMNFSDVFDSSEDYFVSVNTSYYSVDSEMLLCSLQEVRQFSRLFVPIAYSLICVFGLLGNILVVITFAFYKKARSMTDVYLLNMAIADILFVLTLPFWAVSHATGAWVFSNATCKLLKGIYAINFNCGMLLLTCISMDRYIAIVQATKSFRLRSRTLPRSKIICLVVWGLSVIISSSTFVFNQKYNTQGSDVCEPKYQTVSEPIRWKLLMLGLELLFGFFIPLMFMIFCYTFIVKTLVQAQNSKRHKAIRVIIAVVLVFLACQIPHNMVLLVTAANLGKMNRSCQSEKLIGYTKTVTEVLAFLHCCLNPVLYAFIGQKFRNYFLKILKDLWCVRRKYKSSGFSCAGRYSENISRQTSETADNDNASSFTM
Test: CCR6+ T Cell Chemotaxis Assay
Assay type: cell-based
Details: Table 11; human CD4+CCR6+CXCR3- T cells, CCL20 0.5 nM in bottom chamber, 1 h at 37° C.; read-out: IC50
parameter: pIC50
Value format note: pIC50 is -log10 of concentration (mol/L); just state the number.

Below, each entry is followed by its recorded pIC50 result.
INSERT INTO measurements (compound, parameter, readout_number) VALUES
  ('Cc1cn(C)nc1[C@H](Nc1c(Nc2ccnc(C(=O)N(C)C)c2O)c(=O)c1=O)C1(C)CC2(CC2)C1 (single isomer, unassigned) [Example 17]', 'pIC50', 8.23),
  ('Cc1nc([C@H](Nc2c(Nc3ccnc(C(=O)N(C)C)c3O)c(=O)c2=O)C2(C)CCCC2)c(C)s1 [Example 32]', 'pIC50', 8.57),
  ('Cc1sc(CO)nc1[C@H](Nc1c(Nc2ccnc(C(=O)N(C)C)c2O)c(=O)c1=O)C1(C)CCCC1 [Example 28]', 'pIC50', 7.44);

The record that follows has no pIC50 shown yet.
Memo: CCN(C)C(=O)c1nccc(Nc2c(N[C@@H](c3nn(C)cc3C)C3(C)CCCC3)c(=O)c2=O)c1O [Example 4] , reported pIC50: 8.20

---

Target: CXCR2 (Homo sapiens, UniProt P25025)
Sequence (P25025 1-360): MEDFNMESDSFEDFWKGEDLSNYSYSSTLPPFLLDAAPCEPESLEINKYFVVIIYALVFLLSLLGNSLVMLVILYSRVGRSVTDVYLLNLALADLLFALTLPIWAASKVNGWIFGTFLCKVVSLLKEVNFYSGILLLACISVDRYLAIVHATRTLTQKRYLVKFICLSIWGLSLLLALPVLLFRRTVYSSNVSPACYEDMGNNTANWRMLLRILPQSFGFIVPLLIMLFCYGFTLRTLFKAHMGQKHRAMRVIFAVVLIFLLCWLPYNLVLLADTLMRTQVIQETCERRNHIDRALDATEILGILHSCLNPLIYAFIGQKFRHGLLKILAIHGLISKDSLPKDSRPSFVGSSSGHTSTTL
Assay: Human Neutrophil Chemotaxis Assay
Type: cell-based
Parameters: Human neutrophils were purified from freshly drawn human whole blood; endogenous in cells; host or cells: primary human neutrophils from fresh whole blood
Details: Table 12; human neutrophils migrating towards the CXCR2 ligand GROα; read-out: IC50
A collection of compounds and their measured pIC50
On this scale, pIC50 is minus log10 of a concentration expressed in M (mol/L).

Here are 5 compounds together with their reported answers.
INSERT INTO measurements (chem_smiles, parameter, readout_number) VALUES
  ('CCc1cn(C)nc1[C@H](Nc1c(Nc2ccnc(C(=O)N(C)C)c2O)c(=O)c1=O)C1(C)CC1', 'pIC50', 6.53),
  ('Cc1nc([C@H](Nc2c(Nc3ccnc(C(=O)N(C)C)c3O)c(=O)c2=O)C2(C)CC2)c(C)s1', 'pIC50', 6.71),
  ('Cc1nc([C@H](Nc2c(Nc3ccnc(C(=O)N(C)C)c3O)c(=O)c2=O)C2(C)CCCC2)c(C)s1', 'pIC50', 6.48),
  ('COc1cn(C)nc1[C@H](Nc1c(Nc2ccnc(C(=O)N(C)C)c2O)c(=O)c1=O)C1(C)CCCC1', 'pIC50', 6.97),
  ('COc1cn(C)nc1[C@H](Nc1c(Nc2ccnc(C(=O)N(C)C)c2O)c(=O)c1=O)C(C)(C)C', 'pIC50', 6.48);

Next compound, pIC50 to be filled in.
compound CC(C)N(C)C(=O)c1nccc(Nc2c(N[C@@H](c3nn(C)cc3C#N)C3(C)CCCC3)c(=O)c2=O)c1O , pIC50 observed: 5.56

---

Recorded IC50 values for a group of compounds are listed next.
Target: CXCR2 (Homo sapiens)
Assay: Human Neutrophil Chemotaxis Assay
Type: cell-based
Parameters: Human neutrophils were purified from freshly drawn human whole blood; endogenous in cells; host or cells: primary human neutrophils from fresh whole blood
Details: Table 12; human neutrophils migrating towards the CXCR2 ligand GROα; read-out: IC50
Report only the number, with the unit µM understood.

Record excerpt, results attached:
INSERT INTO measurements (compound, unit, readout_number) VALUES
  ('COc1cn(C)nc1[C@H](Nc1c(Nc2ccnc(C(=O)N(C)C(C)C)c2O)c(=O)c1=O)C1(C)CCCC1 [Example 11]', 'µM', 0.21),
  ('Cc1cn(C)nc1[C@H](Nc1c(Nc2ccnc(C(=O)N(C)C)c2O)c(=O)c1=O)C1(C)CCC1 [Example 23]', 'µM', 0.248),
  ('CCc1cn(C)nc1[C@H](Nc1c(Nc2ccnc(C(=O)N(C)C)c2O)c(=O)c1=O)[C@]1(C)CC(F)(F)CO1 [Example 37]', 'µM', 3.63);

Next item in the queue.
Input Cc1cn(C)nc1[C@H](Nc1c(Nc2ccnc(C(=O)N(C)C)c2O)c(=O)c1=O)C1(C)CC2(CC2)C1 (single isomer, unassigned) [Example 17] . Output IC50: 3.16

---

IC50 overview
Target: CCR6 (Homo sapiens)
Construct: Human CD4+CCR6+CXCR3-T cells were isolated from leukopak from healthy donors; endogenous in cells
Assay: CCR6+ T Cell Chemotaxis Assay
Assay type: cell-based
Conditions: Table 11; human CD4+CCR6+CXCR3- T cells, CCL20 0.5 nM in bottom chamber, 1 h at 37° C.; read-out: IC50
Reply numerically in nM, unit not repeated.

Below, 5 compounds whose answers are already recorded.
INSERT INTO assay_data (compound, parameter, readout_number) VALUES
  ('Cc1nc([C@H](Nc2c(Nc3ccnc(C(=O)N(C)C)c3O)c(=O)c2=O)[C@]2(C)CC(F)(F)CO2)c(C)s1', 'IC50', 12.6),
  ('Cc1cn(C)nc1[C@H](Nc1c(Nc2ccnc(C(=O)N(C)C)c2O)c(=O)c1=O)C1(C)CCCC1', 'IC50', 5.8),
  ('[2H]C([2H])([2H])c1cn(C)nc1[C@H](Nc1c(Nc2ccnc(C(=O)N(C)C)c2O)c(=O)c1=O)C1(C)CCCC1 (single isomer, unassigned)', 'IC50', 6.5),
  ('Cc1nc([C@H](Nc2c(Nc3ccnc(C(=O)N(C)C)c3O)c(=O)c2=O)C2(C)CCC2)c(C)s1', 'IC50', 3.1),
  ('CCc1cn(C)nc1[C@H](Nc1c(Nc2ccnc(C(=O)N(C)C)c2O)c(=O)c1=O)C1(C)CCC1', 'IC50', 3.3);

Test item CN(C)C(=O)c1nccc(Nc2c(N[C@@H](c3nn(C)cc3Cl)C3(C)CCCC3)c(=O)c2=O)c1O ; CCR6 (Homo sapiens); reported IC50 was 3

Measured IC50 for this entry CCc1cn(C)nc1[C@H](Nc1c(Nc2ccnc(C(=O)N(C)C)c2O)c(=O)c1=O)C1(C)CCCC1 on CCR6 (Homo sapiens): 3.3

Recorded IC50 for CN(C)C(=O)c1nccc(Nc2c(N[C@@H](c3nn(C)cc3C#N)C3(C)CCCC3)c(=O)c2=O)c1O on CCR6 (Homo sapiens) was 41.7

Kindly note: CCR6 (Homo sapiens), Cc1cn(C)nc1[C@H](Nc1c(Nc2ccnc(C(=O)N(C)C)c2O)c(=O)c1=O)[C@]1(C)CC(F)(F)CO1 (single isomer, unassigned) , IC50 value reported: 32.3

---

Target: CCR6 (Homo sapiens, UniProt P51684)
Construct: Human CD4+CCR6+CXCR3-T cells were isolated from leukopak from healthy donors; endogenous in cells
Assay: CCR6+ T Cell Chemotaxis Assay
Type: cell-based
Conditions: Table 15; WO 2010/131145 comparator compounds; read-out: IC50 (nM) CCR6 T cell, CCL20 Chemotaxis
Description: Human CD4+CCR6+CXCR3-T cells were isolated from leukopak from healthy donors using EasySep™ Human Th17 Cell Enrichment Kit. […] Day 4 post activation, Dynabeads were removed from the culture. The activated T cells were maintained at 1-2×10^6 cells/mL for 15 days by feeding fresh growth media when needed. […] IC50 values for compounds of the present invention (Table 11) were determined by the non-linear regression analysis of dose response curves.
parameter: IC50 (nM)
Supply the numeric figure in nM, leaving out any unit text.

Log: CCR6 (Homo sapiens, UniProt P51684), compound CC[C@@H](Nc1c(Nc2ccnc(C(=O)N(C)C)c2O)c(=O)c1=O)c1cccc(C2CC2)c1 [Example 120, reference compound] , IC50 = 388
